System Tested: T1, BsaWI R130A (UniProt Q6UQ65 1-272, R130A)
T1 sequence: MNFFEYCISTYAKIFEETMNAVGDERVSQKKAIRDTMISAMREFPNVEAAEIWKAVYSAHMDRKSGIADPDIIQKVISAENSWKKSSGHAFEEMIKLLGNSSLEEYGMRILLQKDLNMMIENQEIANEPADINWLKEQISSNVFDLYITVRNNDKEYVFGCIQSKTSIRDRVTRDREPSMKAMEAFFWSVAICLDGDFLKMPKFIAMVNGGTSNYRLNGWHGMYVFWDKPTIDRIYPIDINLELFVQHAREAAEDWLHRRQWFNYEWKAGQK
Experiment Summary: EMSA; 5 mM Ca2+; EMSA: 40 mM Tris-acetate pH 8.3, 0.1 mg/ml BSA, 10% glycerol, 5 mM CaCl2 or 0.1 mM EDTA, 1 nM DNA, room temperature, 15 min
Assay Context: protein: recombinant; chain copies: 2; label: 33P; blunt
Measurement Label: pKd
Just the number, please; pKd means minus log10 of the concentration in mol/L.

(Q) Requested read-out: pKd. Entry: SP (dsDNA) DNA 1: GCCTTTCGGTTTACCGGTGTCATTCCGCTG DNA 2: CAGCGGAATGACACCGGTAAACCGAAAGGC
(A) 8.41
